From: PubChem BioAssay AID1159580

- test method notes: chemical genetic growth profiling, strain panel (AID 1159580);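 also: tested at 20 µM; growth read once vehicle control cultures reached saturation at 30 °C; 1 = growth at the plate median or of vehicle wells; lower values mean less growth of the strain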
- run parameters: S. cerevisiae deletion strains, growth OD, locus YDR226W, strain ADK1, active compounds read low
In all, about 5,500 compounds went through this assay and about 2,000 (36%) were called active. Roughly 18% stayed inconclusive and do not appear here. The list shows a part of the results.
Listing of recorded normalized growth by entry.
measured property: normalized growth

1. Cc1ccc(NC(=O)c2ccccc2N=Cc2cc(Cl)cc(Cl)c2O)c(N=Cc2cc(Cl)cc(Cl)c2O)c1    0.925
2. O=C(Nc1ccc(Cl)cc1)OCCSc1nc2ccccc2s1    0.987
3. Cc1c(-c2ccnn2C(=O)c2ccco2)cnn1-c1ccccc1    0.953
4. OC(=Cc1nc2ccccc2nc1C=C(O)c1ccc(Cl)cc1)c1ccc(Cl)cc1    0.969
5. OC(CN1CCN(c2nc3ccc(Cl)cc3s2)CC1)Cn1ccc2ccccc21 (stereo unspecified)    0.99
6. O=C(/C=C/Sc1nc2ccccc2s1)c1ccc(Cl)cc1    0.981

---

We begin with a simple list: items and their reported normalized growth.
- test method notes: chemical genetic growth profiling, strain panel (AID 1159580)
- run parameters: S. cerevisiae deletion strains, growth OD, locus YAR019C, strain CDC15, active compounds read low
Out of some 5,500 compounds screened, about 2,000 (36%) were called active. About 18% were inconclusive and are not listed. Some of the results follow.
measured property: normalized growth

1. OC(CN1CCN(c2nc3ccc(Cl)cc3s2)CC1)Cn1ccc2ccccc21 (stereo not given)    1 (inactive)
2. CC(=O)ON=C1c2cc([N+](=O)[O-])ccc2-c2ccc([N+](=O)[O-])cc21    0.948 (inactive)
3. O=C(Nc1ccc(OC(F)(F)F)cc1)N1CCN(c2nc(-c3ccccc3)ns2)CC1    1 (inactive)
4. O=c1c2ccccc2[nH]c(=S)n1-c1cccc(C(F)(F)F)c1    0.927 (inactive)
5. N#CC(C#N)=Cc1ccc(-c2ccccc2C(F)(F)F)o1    0.947 (inactive)
6. O=[N+]([O-])c1ccc2oc(C(O)c3cccc(Cl)c3)cc2c1 (stereo not given)    0.947 (inactive)
7. O=[N+]([O-])c1ccc(Sc2ssc(=S)c2-c2ccccc2)nc1    0.922 (inactive)
8. Cc1ccc(NNC(=O)c2c(C)noc2C)cc1Cl    0.977 (inactive)
9. CCCCN(C)C(=O)c1cc([N+](=O)[O-])cc2c1-c1ccc([N+](=O)[O-])cc1C2=C(C#N)C#N    0.984 (inactive)
10. FC(F)(F)c1cccc(-n2c(CSCc3cccc4ccccc34)n[nH]c2=S)c1    0.986 (inactive)

---

- test method notes: chemical genetic growth profiling, strain panel (AID 1159580)
- run parameters: S. cerevisiae deletion strains, growth OD, locus YOR265W, strain rbl2, active compounds read low
About 2,000 (36%) of roughly 5,500 compounds were called active. Roughly 18% stayed inconclusive and do not appear here. Some of the results follow.
The following compounds are shown together with reported normalized growth values.
measured property: normalized growth

1) COC(=O)C1=CCCN(C)C1    1
2) CN1C(C(=O)Nc2ccccn2)=C(O)c2ccccc2S1(=O)=O    0.967
3) CC(C)COCC(CN(Cc1ccccc1)c1ccccc1)N1CCCC1 (configuration not stated)    1.02
4) Cc1cc(-c2ccccc2)nnc1NCCN1CCOCC1    0.995
5) CCNC(=O)CC[C@H](N)C(=O)O    0.991
6) O=c1[nH]oc2c1CCNC2    0.994
7) CC(C)(Oc1ccc(C2CC2(Cl)Cl)cc1)C(=O)O (configuration not stated)    1

---

- test method notes: chemical genetic growth profiling, strain panel (AID 1159580)
- run parameters: S. cerevisiae deletion strains, growth OD, locus YPR167C, strain met16
In all, about 5,500 compounds went through this assay and about 2,000 (36%) were called active. About 18% were inconclusive and are not listed. No stated cut-off is given here; in the data, active means normalized growth mostly below about 0.91 (no sharp cut-off); inconclusive means no clear call, values can overlap the other calls; inactive means mostly above about 0.92. The list shows a part of the results.
Labels: 1.0 (active), 0.0 (inactive)

1) COC(=O)C(O)c1ccccc1 (stereo not drawn)    0.0
2) CC(=O)Oc1c(C)cccc1C(=O)O    0.0
3) COC(=O)C(C)c1ccc(C(=O)c2cccs2)cc1 (stereo not drawn)    0.0
4) CC(C)NCC(O)c1cc(O)cc(O)c1 (stereo not drawn)    0.0
5) Cc1ccc(Cl)c(Nc2ccccc2C(=O)O)c1Cl    1.0
6) COC(=O)C1=CCCN(C)C1    0.0
7) COc1cc2c(cc1OC)C1Cc3ccc(OC)c(OC)c3CN1CC2 (stereo not drawn)    0.0
8) CCOC(=O)[C@H](CCc1ccccc1)N[C@@H](C)C(=O)N1[C@H](C(=O)O)C[C@@H]2CCC[C@@H]21    0.0
9) C=C1C(=O)O[C@@H]2C[C@@]3(C)CCC[C@H](C)C3=C[C@H]12    1.0
10) CC(C(=O)O)c1ccc(C(=O)c2cccs2)cc1 (stereo not drawn)    0.0
11) Cc1cc(NC(=O)C2=C(O)c3ccccc3S(=O)(=O)N2C)no1    0.0
12) CN1C(C(=O)Nc2ccccn2)=C(O)c2ccccc2S1(=O)=O    0.0
13) CC(C)NNC(=O)c1ccncc1    0.0

---

- test method notes: chemical genetic growth profiling, strain panel (AID 1159580);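 also: tested at 20 µM; growth read once vehicle control cultures reached saturation at 30 °C; 1 = growth at the plate median or of vehicle wells; lower values mean less growth of the strain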
- run parameters: S. cerevisiae deletion strains, growth OD, locus YHR142W, strain chs7, active compounds read low
Among all 5,500 compounds or so, about 2,000 (36%) were called active. Not shown: some 18% with an inconclusive outcome. This is one part of the list.
Below, each entry is listed with its recorded normalized growth.
measured property: normalized growth

1. COc1cc2occ(-c3ccccc3)c(=O)c2c(OC)c1C    0.917
2. COc1ccc(-c2coc3cc(OC)cc(OC)c3c2=O)cc1    0.93
3. CC1C[C@H]2CC(=O)[C@H]3CCCN4CCC[C@H]2[C@]34C1 (stereo partly specified)    1.02
4. COc1ccc2c(c1OC)C(=O)OC2[C@H]1c2c(cc3c(c2OC)OCO3)CCN1C (stereo partly specified)    1
5. O=C1OC2(c3ccc(O)cc3Oc3cc(O)ccc32)c2ccccc21    1.04
6. COc1cc(-c2coc3cc(OC)c(OC)c(OC)c3c2=O)cc(OC)c1OC    0.994

---

- test method notes: chemical genetic growth profiling, strain panel (AID 1159580);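 also: tested at 20 µM; growth read once vehicle control cultures reached saturation at 30 °C; 1 = growth at the plate median or of vehicle wells; lower values mean less growth of the strain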
- run parameters: S. cerevisiae deletion strains, growth OD, locus YNL153C, strain GIM3
Hit rate of the full screen: of about 5,500 compounds, about 2,000 (36%) were called active. Not shown: some 18% with an inconclusive outcome. Rule as the data show it: active = normalized growth mostly below about 0.91 (no sharp cut-off); inconclusive = no clear call, values can overlap the other calls; inactive = mostly above about 0.92. This is one part of the list.
Outcomes: active, inactive

1) CC(C(=O)O)c1ccc(C(=O)c2cccs2)cc1 (configuration not stated)    inactive
2) COC(=O)C(O)c1ccccc1 (configuration not stated)    inactive
3) COc1ccc(CCN2CCC(Nc3nc4ccccc4n3Cc3ccc(F)cc3)CC2)cc1    inactive
4) Cc1nc(-c2ccc(S(=O)(=O)N3CCN(c4ncnc5scc(-c6ccccc6)c45)CC3)s2)cs1    inactive
5) O=C(O)CN1C(=O)c2cccc3cccc(c23)C1=O    inactive
6) Clc1cccc(NC2=NCCS2)c1Cl    inactive
7) CC1(C)OC(=O)C=CC2(C)C1CC(O)C1(C)C2CCC2(C)C(c3ccoc3)OC(=O)C3OC321 (configuration not stated)    inactive
8) O=C(c1ccccc1)c1cc2c(cc1Br)OCCO2    active
9) O=C(O)c1ccccc1-c1c2cc(Br)c(=O)cc-2oc2[c]([Hg])c(O)c(Br)cc12    inactive
10) CC12NC(=O)NC1(C)NC(=O)N2 (configuration not stated)    inactive
11) O=C1OC(c2ccc(O)cc2)(c2ccc(O)cc2)c2ccccc21    inactive
12) Nc1nc2ncc(=O)[nH]c2c(=O)[nH]1    inactive

---

- test method notes: chemical genetic growth profiling, strain panel (AID 1159580);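 also: tested at 20 µM; growth read once vehicle control cultures reached saturation at 30 °C; 1 = growth at the plate median or of vehicle wells; lower values mean less growth of the strain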
- run parameters: S. cerevisiae deletion strains, growth OD, locus YBR021W, strain FUR4
In all, about 5,500 compounds went through this assay and about 2,000 (36%) were called active. Roughly 18% stayed inconclusive and do not appear here. Rule as the data show it: active = normalized growth mostly below about 0.91 (no sharp cut-off); inconclusive = no clear call, values can overlap the other calls; inactive = mostly above about 0.92. Some of the results follow.
Classes used: active, inactive

1. COc1c(OC)c2occc2c2oc(=O)ccc12    inactive
2. Cc1cc(NC(=O)C2=C(O)c3ccccc3S(=O)(=O)N2C)no1    inactive
3. COc1c2ccoc2c(OC)c2oc(=O)ccc12    inactive
4. CCCNC1CCc2nc(N)sc2C1 (configuration not stated)    inactive
5. COC(=O)C(O)c1ccccc1 (configuration not stated)    inactive
6. CC1(C)NC(=O)N(c2ccc([N+](=O)[O-])c(C(F)(F)F)c2)C1=O    inactive
7. OC(Cn1cncn1)(Cn1cncn1)c1ccc(F)cc1F    inactive
8. CC(C)COCC(CN(Cc1ccccc1)c1ccccc1)N1CCCC1 (configuration not stated)    active
9. Nc1nc2ncc(=O)[nH]c2c(=O)[nH]1    inactive
10. CN1C(C(=O)Nc2ccccn2)=C(O)c2ccccc2S1(=O)=O    inactive
11. CC(C)C(=O)Nc1ccc([N+](=O)[O-])c(C(F)(F)F)c1    inactive
12. C=C1C(C)C2C(Cc3ccccc3)NC(=O)C23OC(=O)/C=C/C(O)CCCC(C)C/C=C/C3C1O (configuration not stated)    inactive
